The following compounds are shown together with reported fraction unbound at 4 h, 5 μM values.
Test: in vitro
Assay type: in vitro ADME, mice
Details: mouse, plasma, pH 7.4, % Bound Mean ± SD
Protocol: The objective of this study was to evaluate protein binding test compounds in mice plasma. […] Analyte area ratios of the test compounds in plasma and buffer were determined to calculate unbound and bound percentages of compound to the plasma proteins. […] A 25 μL aliquot of warfarin and test compounds were crashed with 100 μL of acetonitrile containing internal standard (glipizide) and vortexed for 5 minutes. […] Samples were monitored for parent compound in MRM mode using LC-MS/MS. […]
Structures can show the parent of a compound that is named as a salt.
// response body must contain only the number

Sample answers from the record:
input: For the compound shown here, CC(=O)CC(c1ccccc1)c1c(O)c2ccccc2oc1=O (centres unmarked) [Warfarin, reference compound] , give the reported fraction unbound at 4 h, 5 μM.
output: 0.069

input: For the compound shown here, COc1c(F)cc(Nc2nc(-c3c(C)nc4ccccn34)cs2)cc1F [Compound 14, hydrochloride] , give the reported fraction unbound at 4 h, 5 μM.
output: 0.003

input: For the compound shown here, [2H]C1([2H])Oc2ccc(Nc3nc(-c4c(C)nc5ccccn45)cs3)cc2O1 [Compound 17, hydrochloride] , give the reported fraction unbound at 4 h, 5 μM.
output: 0.006

input: For the compound shown here, [2H]C([2H])([2H])Oc1ccc(Nc2nc(-c3c(C)nc4ccccn34)cs2)cc1 [Compound 15, hydrochloride] , give the reported fraction unbound at 4 h, 5 μM.
output: 0.001

Now for another entry.
input: For the compound shown here, Cc1nc2ccccn2c1-c1csc(Nc2ccc3c(c2)OC(F)(F)O3)n1 [Compound 16, hydrochloride] , give the reported fraction unbound at 4 h, 5 μM.
output: 0.01

====

Experiment: Plasma pharmacokinetics and brain distribution after single IV, IP and oral administration
Type: in vivo
Details: male, C57BL/6, mouse, in vivo, iv, 10 mg/kg, Mean plasma conc.
Counter-ions that a name gives are not always drawn.
measure name: concentration at 12 hr (ng/mL)
Write the value in ng/mL as a bare number.

input: For the compound shown here, Cc1nc2ccccn2c1-c1csc(Nc2ccc3c(c2)OC(F)(F)O3)n1 [Compound 16, hydrochloride] , give the reported concentration at 12 hr.
output: 0

====

The following compounds are shown together with reported concentration at 24 h values.
Experiment: Plasma pharmacokinetics and brain distribution after single IV, IP and oral administration
Type: in vivo
Settings: male, C57BL/6, mouse, in vivo, po, 10 mg/kg, Plasma concentration, individual animal
Structures can show the parent of a compound that is named as a salt.
Write the value in ng/mL as a bare number.

input: For the compound shown here, [2H]C([2H])([2H])Oc1ccc(Nc2nc(-c3c(C)nc4ccccn34)cs2)cc1 [Compound 15, hydrochloride] , give the reported concentration at 24 h.
output: 0

---
input: For the compound shown here, Cc1nc2ccccn2c1-c1csc(Nc2ccc3c(c2)OC(F)(F)O3)n1 [Compound 16, hydrochloride] , give the reported concentration at 24 h.
output: 0

input: For the compound shown here, [2H]C1([2H])Oc2ccc(Nc3nc(-c4c(C)nc5ccccn45)cs3)cc2O1 [Compound 17, hydrochloride] , give the reported concentration at 24 h.
output: 0

====

Experiment: Plasma pharmacokinetics and brain distribution after single IV, IP and oral administration
Assay type: in vivo
Conditions: male, C57BL/6, mouse, in vivo, po, 10 mg/kg, Brain concentration, individual animal
Counter-ions that a name gives are not always drawn.
measure name: concentration at 0.35 h (ng/g)
Write the value in ng/g as a bare number.

input: For the compound shown here, [2H]C1([2H])Oc2ccc(Nc3nc(-c4c(C)nc5ccccn45)cs3)cc2O1 [Compound 17, hydrochloride] , give the reported concentration at 0.35 h.
output: 43.6

# credit: patent US12215106B2
